- Tested system: UniProtKB B1MCI3
Reported property: pKd
# pKd = -log10(concentration in molar units)

Return reported pKd; argument: CC1=C[C@@H]2CN(C(=O)N2OS(=O)(=O)O)[C@@H]1C(N)=O 9.70
